ASSAY OVERVIEW: Cytotoxicity against human A549 cells assessed as cell viability at 3.13 ug/ml incubated for 24 hrs by MTT assay relative to control
Format: toxicity, cell-based
SETUP CONDITIONS: at 3.13 µg/mL, read-out: Activity
OBSERVED PROPERTY: viability at 24 h, 3.13 ug/ml (%)

INSERT INTO results (structure, observed_property, quantitative_readout) VALUES
  ('CCCOc1ccc(-c2cc(OCCN(CC)CC)c3cc(Oc4ccccc4)ccc3n2)cc1', 'viability at 24 h, 3.13 ug/ml', 80.1),
  ('CCCOc1ccc(-c2cc(OCCN3CCCCCC3)c3cc(OCCC)ccc3n2)cc1', 'viability at 24 h, 3.13 ug/ml', 100),
  ('CCCOc1ccc(-c2cc(OCCN3CCCCC3)c3cc(OC(F)F)ccc3n2)cc1', 'viability at 24 h, 3.13 ug/ml', 100),
  ('CCCOc1ccc(-c2cc(OCCN3CCCCCC3)c3cc(SC)ccc3n2)cc1', 'viability at 24 h, 3.13 ug/ml', 100),
  ('CCCOc1ccc(-c2cc(OCCN3CCCCCC3)c3cc(C(F)(F)F)ccc3n2)cc1', 'viability at 24 h, 3.13 ug/ml', 100),
  ('CCCOc1ccc(-c2cc(OCCN3CCCCC3)c3cc(Oc4ccccc4)ccc3n2)cc1', 'viability at 24 h, 3.13 ug/ml', 100);
